Quick list: viability, T/C per entry.
- Tested on: 624824-186-R-J3-PDC multicell spheroids, viability;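 note: luminescent signal used as a stand-in for spheroid viability; spheroids exposed to agents for seven days before luminescence read; percent viability relative to DMSO vehicle control wells taken as 100%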
- assay.notes: Anticancer human tumor 624824-186-R-J3-PDC patient-derived colon adenocarcinoma cell line growth inhibition [PI3K]
- condition.description: second compound 0.316 µM; first compound 0.0316 µM; stronger effect = lower value

# compound, viability, T/C [%]
measured = [
    ("CC(Cn1ccc(-c2ccc(C#N)c(Cl)c2)n1)NC(=O)c1cc(C(C)O)[nH]n1 (stereo unspecified) + CC(Nc1ccc2c(c1)OCCn1cc(N3C(=O)OCC3C(F)F)nc1-2)C(N)=O", 94.2),
    ("CC(C)NCC(C(=O)N1CCN(c2ncnc3c2C(C)CC3O)CC1)c1ccc(Cl)cc1 (stereo unspecified) + COc1c(OCCCN2CCOCC2)ccc2c3n(c(=NC(=O)c4cnc(N)nc4)nc12)CCN3", 47.9),
    ("Cn1ncnc1[C@H]1c2n[nH]c(=O)c3cc(F)cc(c23)N[C@@H]1c1ccc(F)cc1 + Cc1nc(NC(=O)N2CCCC2C(N)=O)sc1-c1ccnc(C(C)(C)C(F)(F)F)c1", 105),
    ("Cn1ncnc1[C@H]1c2n[nH]c(=O)c3cc(F)cc(c23)N[C@@H]1c1ccc(F)cc1 + COc1c(OCCCN2CCOCC2)ccc2c3n(c(=NC(=O)c4cnc(N)nc4)nc12)CCN3", 48.7),
    ("CC(Cn1ccc(-c2ccc(C#N)c(Cl)c2)n1)NC(=O)c1cc(C(C)O)[nH]n1 (stereo unspecified) + COc1c(OCCCN2CCOCC2)ccc2c3n(c(=NC(=O)c4cnc(N)nc4)nc12)CCN3", 54.6),
    ("CC1(C)CCC(Nc2ncc(C(F)(F)F)c(-c3c[nH]c4c(P(C)(C)=O)c(C#N)ccc34)n2)CN1 (stereo unspecified) + CC(Nc1ncnc2nc[nH]c12)c1cc2cccc(Cl)c2c(=O)n1-c1ccccc1", 99.2),
    ("CC(C)n1nc(-c2ccc3oc(N)nc3c2)c2c(N)ncnc21 + Cc1nc(NC(=O)N2CCCC2C(N)=O)sc1-c1ccnc(C(C)(C)C(F)(F)F)c1", 89.2),
    ("CC(=O)c1c(C)c2cnc(Nc3ccc(N4CCNCC4)cn3)nc2n(C2CCCC2)c1=O + COc1c(OCCCN2CCOCC2)ccc2c3n(c(=NC(=O)c4cnc(N)nc4)nc12)CCN3", 35.6),
    ("CC1(C)CCC(CN2CCN(c3ccc(C(=O)NS(=O)(=O)c4ccc(NCC5CCOCC5)c([N+](=O)[O-])c4)c(Oc4cnc5[nH]ccc5c4)c3)CC2)=C(c2ccc(Cl)cc2)C1 + CC(Nc1ncnc2nc[nH]c12)c1cc2cccc(Cl)c2c(=O)n1-c1ccccc1", 110),
    ("C#Cc1c(F)ccc2cc(O)cc(-c3ncc4c(N5CC6CCC(C5)N6)nc(OCC56CCCN5CC(F)C6)nc4c3F)c12 (stereo unspecified) + COc1c(OCCCN2CCOCC2)ccc2c3n(c(=NC(=O)c4cnc(N)nc4)nc12)CCN3", 54.7),
    ("C=CC(=O)N1CCN(c2nc(=O)n(-c3c(C)ccnc3C(C)C)c3nc(-c4c(O)cccc4F)c(F)cc23)C(C)C1 (stereo unspecified) + CC(Nc1ncnc2nc[nH]c12)c1cc2cccc(Cl)c2c(=O)n1-c1ccccc1", 96.9),
    ("CC1(C)CCC(CN2CCN(c3ccc(C(=O)NS(=O)(=O)c4ccc(NCC5CCOCC5)c([N+](=O)[O-])c4)c(Oc4cnc5[nH]ccc5c4)c3)CC2)=C(c2ccc(Cl)cc2)C1 + CC(Nc1ccc2c(c1)OCCn1cc(N3C(=O)OCC3C(F)F)nc1-2)C(N)=O", 98.5),
    ("Cn1ncc(Cl)c1-c1cc(C(=O)NC(CN)Cc2cccc(F)c2)sc1Cl (stereo unspecified) + Cc1nc(NC(=O)N2CCCC2C(N)=O)sc1-c1ccnc(C(C)(C)C(F)(F)F)c1", 108),
    ("CCN1CCN(Cc2ccc(Nc3ncc(F)c(-c4cc(F)c5nc(C)n(C(C)C)c5c4)n3)nc2)CC1 + Cc1nc(NC(=O)N2CCCC2C(N)=O)sc1-c1ccnc(C(C)(C)C(F)(F)F)c1", 97.4),
    ("Cn1ncc(Cl)c1-c1cc(C(=O)NC(CN)Cc2cccc(F)c2)sc1Cl (stereo unspecified) + CC(Nc1ncnc2nc[nH]c12)c1cc2cccc(Cl)c2c(=O)n1-c1ccccc1", 103),
    ("CC(C)NCC(C(=O)N1CCN(c2ncnc3c2C(C)CC3O)CC1)c1ccc(Cl)cc1 (stereo unspecified) + Cc1nc(NC(=O)N2CCCC2C(N)=O)sc1-c1ccnc(C(C)(C)C(F)(F)F)c1", 104),
    ("C#Cc1c(F)ccc2cc(O)cc(-c3ncc4c(N5CC6CCC(C5)N6)nc(OCC56CCCN5CC(F)C6)nc4c3F)c12 (stereo unspecified) + Cc1nc(NC(=O)N2CCCC2C(N)=O)sc1-c1ccnc(C(C)(C)C(F)(F)F)c1", 103),
    ("CCN1CCN(Cc2ccc(Nc3ncc(F)c(-c4cc(F)c5nc(C)n(C(C)C)c5c4)n3)nc2)CC1 + CC(Nc1ncnc2nc[nH]c12)c1cc2cccc(Cl)c2c(=O)n1-c1ccccc1", 96.4),
    ("CC(=O)c1c(C)c2cnc(Nc3ccc(N4CCNCC4)cn3)nc2n(C2CCCC2)c1=O + CC(Nc1ncnc2nc[nH]c12)c1cc2cccc(Cl)c2c(=O)n1-c1ccccc1", 107),
    ("CC(C)n1nc(-c2ccc3oc(N)nc3c2)c2c(N)ncnc21 + CC(Nc1ncnc2nc[nH]c12)c1cc2cccc(Cl)c2c(=O)n1-c1ccccc1", 97.1),
    ("CNC(=O)c1ccc(N2C(=S)N(c3ccc(C#N)c(C(F)(F)F)c3)C(=O)C2(C)C)cc1F + CC(Nc1ccc2c(c1)OCCn1cc(N3C(=O)OCC3C(F)F)nc1-2)C(N)=O", 89.4),
]
